Data credit: the FLAb antibody collection (doi:10.7554/elife.23156)

B1: scFv; the commonest letter at each place (parent)
chain 1: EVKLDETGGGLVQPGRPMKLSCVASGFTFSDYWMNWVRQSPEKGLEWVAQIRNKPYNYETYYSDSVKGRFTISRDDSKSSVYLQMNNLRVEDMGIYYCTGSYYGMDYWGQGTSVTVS
chain 2: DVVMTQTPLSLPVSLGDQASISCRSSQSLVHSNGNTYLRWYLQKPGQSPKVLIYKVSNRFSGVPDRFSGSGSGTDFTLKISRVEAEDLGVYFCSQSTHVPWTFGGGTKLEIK

- Variants of: B1
- TEST_PROTOCOL: yeast surface expression (ratio to wild type); higher = more expressed
- EXPERIMENTAL_SETUP: format: scFv 4-4-20, heavy + light
yeast surface expression by entry:

INSERT INTO results (mutant_designation, assay_endpoint, readout_value) VALUES
  ('chain 1 M105A W108L', 'yeast surface expression', 0.505),
  ('chain 1 G100P G104I', 'yeast surface expression', 0.337),
  ('chain 1 W33A V37N', 'yeast surface expression', 0.49),
  ('chain 1 D31V W33D', 'yeast surface expression', 0.821),
  ('chain 1 S101N', 'yeast surface expression', 0.886),
  ('chain 1 W36S V37D', 'yeast surface expression', 1.34),
  ('chain 1 Y103R', 'yeast surface expression', 0.971),
  ('chain 1 S101I Y102T', 'yeast surface expression', 0.614);

// recorded yeast surface expression for chain 1 T28S F29Q : 0.969

// recorded yeast surface expression for chain 1 G104A M105P : 0.375

// recorded yeast surface expression for chain 1 D31T : 0.766

// recorded yeast surface expression for chain 1 Y103C G109A : 0.397

// recorded yeast surface expression for chain 1 F29P M34C : 0.755

// recorded yeast surface expression for chain 1 S30Y D31T : 0.428
